FYI, the data here is from ChEMBL document CHEMBL1140776.

# System: Ctenocephalides felis
# Measurement Notes: Parasiticidal activity against Ctenocephalides felis by cat flea assay
# Type: functional
Outcome Measure: LC50

C/C(=N\OCC1CC1)c1cc(Cl)ccc1NS(=O)(=O)C(F)(F)F :: 5 ng/cm2
C=CCO/N=C(\CC)c1cc(Cl)ccc1NS(=O)(=O)C(F)(F)F :: 21 ng/cm2
CC/C(=N\OCC1CCCCC1)c1cc(Cl)ccc1NS(=O)(=O)C(F)(F)F :: 29 ng/cm2
C/C(=N\OC(C)(C)C)c1cc(Cl)ccc1NS(=O)(=O)C(F)(F)F :: 41 ng/cm2
C/C(=N\OCC(F)(F)F)c1cc(Cl)ccc1NS(=O)(=O)C(F)(F)F :: 6 ng/cm2
CC/C(=N\OCc1ccc(C(F)(F)F)cc1)c1cc(Cl)ccc1NS(=O)(=O)C(F)(F)F :: 17 ng/cm2
N#Cc1nn(-c2c(Cl)cc(C(F)(F)F)cc2Cl)c(N)c1[S+]([O-])C(F)(F)F (stereo not given) :: 0.1 ng/cm2
CC/C(=N\OC(C)(C)C)c1cc(Cl)ccc1NS(=O)(=O)C(F)(F)F :: 43 ng/cm2
CC/C(=N\OCc1ccc(Cl)cc1)c1cc(Cl)ccc1NS(=O)(=O)C(F)(F)F :: 12 ng/cm2
CC/C(=N\OCc1ccccc1C(F)(F)F)c1cc(Cl)ccc1NS(=O)(=O)C(F)(F)F :: 36 ng/cm2
